# System: PC-3
# protocolSummary: NCI tumour cell line growth inhibition, 48 h
The source made the active and inactive calls. No stated cut-off is given here; in the data, active = GI50 up to about 1.1 µM and inactive = higher.
Each entry below carries its recorded GI50.

These recorded examples may help you get a feel for the data.
Clc1ccc(C2ON=C(c3ccccc3)N2C23CC4CC(CC(C4)C2)C3)cc1 (configuration not stated) : > 10 µM (inactive)
C=C(CC[C@@H](C(=O)O)[C@H]1[C@H](O)C[C@@]2(C)C3=CC[C@@H](C(=C)C)[C@](C)(CCC(=O)O)C3=CC[C@]12C)C(C)C : 18.7 µM (inactive)

Attention now shifts to the item below.
Give GI50 (PC-3) of the following compound: CC(C)C1OCC(CO)CO1 (configuration not stated) > 100 µM (inactive)

---

# Test system: MOLT-4
# protocolSummary: NCI tumour cell line growth inhibition, 48 h
Activity calls are given as the source filed them. No stated cut-off is given here; in the data, active = GI50 up to about 1.1 µM and inactive = higher.
Valid outcomes are listed here; reply with one: active, inactive

Record excerpt, results attached:
Nc1ccc(/N=N/c2ccc(/C=C/c3ccc(/N=N/c4ccc(N)c5ccc(S(=O)(=O)O)cc45)cc3S(=O)(=O)O)c(S(=O)(=O)O)c2)c2cc(S(=O)(=O)O)ccc12 : inactive
COc1ccc(C)cc1C1CCC(=O)O1 (centres undefined) : inactive
Cc1nn(-c2ccccc2)c(C)c1/C=N/NC(=O)c1sc(=S)n(-c2ccccc2)c1N : inactive

Record lookup: outcome of this test for `COc1ccc(S(=O)(=O)N/N=C/c2cc(I)cc([N+](=O)[O-])c2O)cc1OC` ? inactive

Record lookup: outcome of this test for CN1N=C(c2ccncc2)OC1c1cccc(F)c1 (centres undefined) ? inactive

Record lookup: outcome of this test for `COc1cc([C@@]23OC[C@@H]4[C@@H](OC[C@@H]42)c2cc4c(cc23)OCO4)cc(OC)c1OC` ? active

Record lookup: outcome of this test for `O=C1c2ccccc2-c2nc(-c3ccccc3)cc3c2c1nc1ccccc13` ? inactive

Record lookup: outcome of this test for `CCOC1=NC(C(F)(F)F)(C(F)(F)F)N=C(N2CCOCC2)O1` ? inactive

Record lookup: outcome of this test for COC1=CC23C=CC1[C@@H](c1ccccc1)C2=C(C)C(=O)N3C(=O)NC1CCCCC1 (some centres undefined) ? inactive

---

# Test system: RXF 393
# protocolSummary: NCI tumour cell line growth inhibition, 48 h
Activity calls are given as the source filed them. No stated cut-off is given here; in the data, active = GI50 up to about 1.1 µM and inactive = higher.
testReadout: GI50

These recorded examples may help you get a feel for the data.
Cc1ccc2nc(-c3ccc(C(C)(C)C)cc3)oc(=O)c2c1 : 36.5 µM (inactive)
COC(=O)[C@@H](NC1(c2ccccc2)c2ccccc2-c2ccccc21)[C@H](OC(=O)[C@H]1CCCN1S(=O)(=O)c1ccccc1)C(=O)OC : > 100 µM (inactive)
CCCn1cc2c(SC)nc(SC)nc2n1 : > 100 µM (inactive)
O=c1c2c(F)c(F)c(F)c(F)c2sc2nccn12 : 17.7 µM (inactive)

Attention now shifts to the item below.
Give GI50 (RXF 393) of the following compound: COC(=O)[C@]12CC3C=CC1N(C3)C(CBr)c1c2n(S(=O)(=O)c2ccccc2)c2ccccc12 (stereo not given in full) 33.2 µM (inactive)

---

# Tested on: SN12C
# protocolSummary: NCI tumour cell line growth inhibition, 48 h
The source made the active and inactive calls. Cut-off read from the data, not from the text of the source: active = GI50 up to about 1.1 µM and inactive = higher.
Each entry below carries its recorded GI50.

Cn1c2c(c3ccccc31)CC(=O)N1CCCC(C1)CC21OCCO1 (stereo not given) : 38.2 µM (inactive)

Which GI50 is reported for this molecule? O=C(O)CP(=S)(S)c1ccccc1 (stereo not given) > 100 µM (inactive)

---

Each entry below carries its recorded GI50.
# System: OVCAR-3
# protocolSummary: NCI tumour cell line growth inhibition, 48 h
Active and inactive are the calls of the source. Rule as the data show it: active = GI50 up to about 1.1 µM and inactive = higher.

CCOC(=O)C(C)(C)C(O)C(C)C (stereo not given) : > 100 µM (inactive)

Which GI50 is reported for this compound? COC1=CC(=O)C(C2(OC(C)C)OC(=O)C(Cl)=C2Cl)=CC1=O (stereo not given) > 100 µM (inactive)

Which GI50 is reported for this compound? `N=C1N(c2ccccc2)C(=S)/C(=N/c2ccccc2)N1c1ccccc1` 2.28 µM (inactive)

Which GI50 is reported for this compound? `S=C1N(c2ccc(Cl)cc2)C2=C(/N=N/c3ccccc3)C(=Nc3ccccc3S2)N1c1ccccn1` 14.2 µM (inactive)

Which GI50 is reported for this compound? COc1cc2c(c(O)c1OC)-c1c(cc(OC)c(OC)c1OC)CC(C)C(C)C2 (stereo not given) 47.1 µM (inactive)

---

# Tested on: HT-29
# protocolSummary: NCI tumour cell line growth inhibition, 48 h
Calls of active or inactive are those of the source. No stated cut-off is given here; in the data, active = GI50 up to about 1.1 µM and inactive = higher.
testReadout: GI50

These recorded examples may help you get a feel for the data.
COc1cc2ccc3c4c(OC)cc(OC)c(OC)c4c([O-])[n+](C)c3c2cc1OC : 6.47 µM (inactive)
CSC(=S)OC1C(CO[Si](C)(C)C(C)(C)C)OC2OC(C)(C)OC21 (stereo not drawn) : 11.4 µM (inactive)
C#C[C@]1(O)CC[C@H]2[C@@H]3CCC4=C/C(=N\OCCN5CCCCC5)CC[C@]4(C)[C@H]3CC[C@@]21C : 6.67 µM (inactive)
O=C1Nc2ccccc2/C1=N/NC(=S)N1CCCC1 : 1.19 µM (inactive)
Cc1ccc(S(=O)(=O)N2CCN(S(=O)(=O)c3ccc(C)cc3)CCN(S(=O)(=O)c3ccc(C)cc3)Cc3cc(C#N)c(C#N)cc3CN(S(=O)(=O)c3ccc(C)cc3)CC2)cc1 : > 100 µM (inactive)
CCCCCCCCSC1=C(Cl)C(=O)C(OC)=C(OC)C1=O : 16.9 µM (inactive)
Cc1cc(NS(=O)(=O)c2ccc(NO)cc2)no1 : 41.3 µM (inactive)
O=S(=O)(O)c1cc(S(=O)(=O)O)c2c(/N=N/c3ccccc3)c(O)ccc2c1 : > 100 µM (inactive)
O=C(O)CP(=S)(S)c1ccccc1 (stereo not drawn) : > 100 µM (inactive)
O=C1CCCn2c(nc3ccccc32)N1 : > 100 µM (inactive)

Give GI50 (HT-29) of the following molecule: `N=C1N(c2ccccc2)C(=S)/C(=N/c2ccccc2)N1c1ccccc1` 4.37 µM (inactive)

Give GI50 (HT-29) of the following molecule: `O=c1c2cccnc2ncn1CCN1CCCC1` > 100 µM (inactive)

Give GI50 (HT-29) of the following molecule: CN(NC1OC(CO)C(O)C(O)C1O)c1ccccc1 (stereo not drawn) > 100 µM (inactive)

---

# Test system: HL-60
# protocolSummary: NCI tumour cell line growth inhibition, 48 h
The source made the active and inactive calls. Rule as the data show it: active = GI50 up to about 1.1 µM and inactive = higher.
Valid outcomes are listed here; reply with one: active, inactive

Record excerpt, results attached:
CC(=O)C1(C(=O)C(=[N+]=[N-])S(=O)(=O)c2ccccc2)CC1 : inactive
c1ccc(C2C3=C(c4ccccc4CC3)N3c4cc5c(cc4=NC34CCCCC24)Nc2ccccc2N=5)cc1 (centres undefined) : inactive
CCCCNC(=O)OCC(COc1ccccc1OC)OC(=O)NCCCC (centres undefined) : inactive
CCOC1=NC(C(F)(F)F)(C(F)(F)F)N=C(/N=C(/N)N(C)C(C(C)C)P(=O)(OC(C)C)OC(C)C)O1 (centres undefined) : inactive

Could you now look at the following molecule, please?
Record lookup: outcome of this test for `COc1ccc2cc1Oc1ccc(cc1)C[C@@H]1c3cc(c(OC)cc3CCN1C)Oc1c(OC)c(OC)cc3c1[C@H](C2)N(C)CC3` ? inactive

---

# Tested on: UACC-62
# protocolSummary: NCI tumour cell line growth inhibition, 48 h
Active and inactive are the calls of the source. No stated cut-off is given here; in the data, active = GI50 up to about 1.1 µM and inactive = higher.
testReadout: GI50

CCCCNC(=O)Nc1c(C(N)=O)c2n(c1C(=O)OCC)CCCCC2 : > 100 µM (inactive)

Which GI50 is reported for this compound? Cc1nc(N)nn1C1OCC(O)C(O)C1O (stereo not given) > 100 µM (inactive)

Which GI50 is reported for this compound? COc1cc(/C=C2\CCC(C)(CN(C)C)C2=O)cc(OC)c1OC (stereo not given) 70.5 µM (inactive)

Which GI50 is reported for this compound? `C=CCOCn1ccc(NC(=O)c2ccccc2)nc1=O` > 100 µM (inactive)

---

Each entry below carries its recorded GI50.
# Test system: LOX IMVI
# protocolSummary: NCI tumour cell line growth inhibition, 48 h
The source made the active and inactive calls. Rule as the data show it: active = GI50 up to about 1.1 µM and inactive = higher.

These recorded examples may help you get a feel for the data.
COCCOCCOCCOc1cccc2c1C(=O)c1cccc(OCCOCCOCCOC)c1C2=O : 70.1 µM (inactive)
C=C1C[C@]23C[C@@]1(O)CC[C@H]2[C@@]12C=C[C@H](O)[C@@](C)(C(=O)O1)[C@H]2[C@@H]3C(=O)O [GIBBERELLIN A3] : > 100 µM (inactive)
CC(C)C(=O)OCC1OC(n2c(Br)nc3c(=O)[nH]c(N)nc32)C(OC(=O)C(C)C)C1OC(=O)C(C)C (stereo not given) : 19.8 µM (inactive)

Which GI50 is reported for this compound? CC1(C)CCc2cc3c(cc2O1)OC(C)(C)C1c2c(ccc4c2CCC(C)(C)O4)OC31 (stereo not given) > 100 µM (inactive)
